Numbers sourced from paper PMC10812921.

biological target: POU1 (OCT1 POU domain);BOB1 (OBF1, OCA-B) (human;human, UniProt P14859;Q16633 260-458;1-256, |); assay: EMSA-SELEX-seq; with BOB1 (ternary complex band); 20 mM Tris-HCl pH 7.6, 140 mM NaCl, 10% glycerol, 0.5 mM EDTA, 0.05% Triton X-100, 0.1 mg/mL BSA, 0.1 mg/mL poly(dI-dC), 5 mM DTT, room temperature, 20 min; high values mean tight binding; conditions: protein: recombinant;recombinant; copies: 1;1; dsDNA, one strand shown
Sequence (P14859 260-458, chain 1 of 2): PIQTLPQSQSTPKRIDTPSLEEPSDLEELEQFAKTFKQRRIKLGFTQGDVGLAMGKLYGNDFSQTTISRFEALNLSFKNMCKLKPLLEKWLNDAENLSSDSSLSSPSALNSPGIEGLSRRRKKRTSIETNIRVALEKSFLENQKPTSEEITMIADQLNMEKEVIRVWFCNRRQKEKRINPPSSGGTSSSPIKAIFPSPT
Sequence (Q16633 whole entry, chain 2 of 2, the tested form may be a part): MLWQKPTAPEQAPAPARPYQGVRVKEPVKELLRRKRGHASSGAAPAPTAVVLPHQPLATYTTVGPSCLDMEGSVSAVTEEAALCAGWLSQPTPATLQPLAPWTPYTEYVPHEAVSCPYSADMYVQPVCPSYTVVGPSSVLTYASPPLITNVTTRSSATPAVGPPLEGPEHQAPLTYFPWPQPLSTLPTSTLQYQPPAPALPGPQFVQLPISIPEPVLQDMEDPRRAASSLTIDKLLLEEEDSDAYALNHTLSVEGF

- monomer.sequence: "AACCTAAG"
  binding signal: "0.018 % of ANNNNAAN 8-mers"
- monomer.sequence: "ATCGTAAG"
  binding signal: "0.0379 % of ANNNNAAN 8-mers"
- monomer.sequence: "ATCCCAAA"
  binding signal: "0.0343 % of ANNNNAAN 8-mers"
- monomer.sequence: "AGGTCAAA"
  binding signal: "0.0632 % of ANNNNAAN 8-mers"
- monomer.sequence: "ACCTAAAT"
  binding signal: "0.0386 % of ANNNNAAN 8-mers"
- monomer.sequence: "ACCTGAAA"
  binding signal: "0.0215 % of ANNNNAAN 8-mers"
- monomer.sequence: "ATTGTAAC"
  binding signal: "0.0336 % of ANNNNAAN 8-mers"
